Target: T1, canine OX40L, full length membrane form, expressed on HEK293 cells (canine)
T1 chain: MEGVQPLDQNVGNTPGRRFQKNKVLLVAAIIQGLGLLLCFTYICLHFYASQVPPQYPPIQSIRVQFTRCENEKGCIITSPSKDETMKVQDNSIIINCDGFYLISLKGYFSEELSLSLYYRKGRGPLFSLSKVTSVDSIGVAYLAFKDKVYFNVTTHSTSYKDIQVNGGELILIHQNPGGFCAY
Test: cell-based or functional assay
readout: % Signal Inhibition Average (%)
Give the number; % is assumed, so skip it.

{"binder": "PMX103 (antibody, V domains shown) VH: EVQLVESGGDLVRPGGSLRLSCVASGFTFSNLHMNWVRQAPGKGLQWVAFINSGGSGTTYADVVRGRFTISRDYAKNTLNLQMTSLRAEDTAVYYCATGSIWTHFDYWGQGTLVTVSS VL: SFVLTQLPSVSVTLRQTARITCGGDSIGSKSVYWYQQKLGQAPVLIIYRDSNRPTGIPERISGASSGNTATLTISGALAEDEADYYCQVWDSSNKAMFGGGTHLTVL", "readout": "% Signal Inhibition Average", "value.units": "%", "numeric.readout": 47.6}

Give the measured % Signal Inhibition Average for PMX038 (antibody, V domains shown, also called PMX38) VH: EVQLVESGGDLVKPGGSLRLSCVASGFTFSSYHMSWVRQAPGKGLQWVAYITSGGRTTSYADAVKGRFTISRDNAKNTLYLQMKSLRAEDTAVYYCARDLVLVLGGAEYWGQGTLVTVSS VL: SYELTQPPSVNVTLRETAHITCGGDSIGRKYVQWIQQNPGQAPVVIIYKDSNRPTGIPERFSGANSGNTATLTISGALAEDEADYYCQVGDSGSKAVFGGGTHLTVL
68.5

Give the measured % Signal Inhibition Average for PMX050 (antibody, V domains shown, also called PMX50) VH: EVQLVESGGDLVKPEGSLRLSCVVSGFTFTTYDMSWVRQAPGKGLQWVAYITNDGRITTYTDAVKGRFTISRDNAKNTLYLQMNSLRTVDTGVYYCARHSSSWSRGRFGLDYWGHGTSVFVSS VL: SYVLTQLPSKNVTLKQPAHITCGGDNIGRKGVHWYQQKLGQAPVLIIYYDSSRPTGIPERFSGANSGNTATLTISGALAEDEADYYCQVWDNSASVFGGGTHLTVL
76.6

Give the measured % Signal Inhibition Average for PMX032 (antibody, V domains shown, also called PMX32) VH: EVQLVESGGDLVKPGGSLRLSCVASGFTFSSYHMSWVRQAPGKGLQWVAYITSGGRTTSYADAVKGRFIISRDNAKNTLYLQMNSLRAEDTAVYYCASDLVLILGGADYWGQGTLVTVSS VL: SYELTQPPSVNVTLRETAHITCGGDSIGRKYVQWIQQNPGQAPVVIIYKDNNRPTGIPERFSGANSGNTATLTISGALAEDEADYYCQVGDSGSKAVFGGGTHLTVL
70

Give the measured % Signal Inhibition Average for PMX047 (antibody, V domains shown, also called PMX47) VH: EVQLVESGGDLVKPGGSLRLSCVASGFIFSSYSMSWVRQAPEKGLQLVAGINSAGSSTYYTDAVKGRFTISRDNAKNTVYLQMNSLRAEDTAIYYCAKRWVFDFWGQGTLVTVSS VL: HIVMTQTPLSLSVSPGEPASISCKASQSLLLSYGNTYLYWFRQKPGQSPQRLIYKVSNRDPGVPDRFSGSGSGTDFTLRISRVEADDAGVYYCGQGIQDPFTFGQGTKLEIK
61.6

Give the measured % Signal Inhibition Average for PMX035 (antibody, V domains shown, also called PMX35) VH: EVQLVESGGDLVKPGGSLRLSCVASGFTFSNFEMYWVRQAPGKGLEWVARIYKSGSTTYHSERVKGRFTISKDSATNMAFLQMNSLRAEDTAVYYCTSASSTGWRFDYWGQGTLVTVSS VL: SYVLTQLPSVSVTLRQTARITCGGDSIGRKNVCWFQQKLGQAPVLIIYDDNSRPSGIPERFSGANSGNTATLTISGALAEDEADYYCQVWDSSTGIFGGGTHLTVL
73.5

Give the measured % Signal Inhibition Average for PMX083 (antibody, V domains shown, also called PMX83) VH: EVQLVESGGDLVKPGGSLRLSCVASGFTFRTYHMSWVRQAPGKGLQWVAYITRDGISTTYTDAVKGRFTISRDNAKNTLFLQMNSLRADDTAVYYCASDLVLVLGAPFYWGQGTLVTVSS VL: SYELTQPPSVNVTLGETAHITCGGDSIGRKYVQWIQQNPGQAPVVIIYKDSNRPTGIPERFSGANSGNTATLTISGALAEDEADYYCQVGDSGTKAVFGEGTQLTVL
71.1
